- run_description: CC50 assay (CellTiter-Glo) in Huh-7 HCV replicon cells
- Type: cell-based, human
- setup_conditions: human, 3 days incubation, CellTiter-Glo readout
- Description: The anti-HCV activity of the pyrido[3,2-d]pyrimidine derivatives of this invention was tested in a human hepatoma Huh-7 cell line harboring a HCV replicon. The assay comprised the following steps: Step 1: Compound Preparation and Serial Dilution • 1. for water soluble pyrido[3,2-d]pyrimidine derivatives, a volume of 500 μL of solution in cell media (DMEM, 10% FBS, P/S, L-Glutamine) was prepared with a concentration being twice the concentration of the starting final serial dilution concentration. […]
assay_metric: CC50 at 3 days

Examples with answers:
CC50 at 3 days lookup needed for CS(=O)(=O)Nc1ccc(CNc2nc(NCC(F)(F)F)c3nc(-c4ccc(F)cc4)ccc3n2)cc1 , thanks.
5 to 25 µM

What do you have for CCOc1nc(NCc2ccc(S(N)(=O)=O)cc2)nc2ccc(-c3ccc(F)c(NS(=O)(=O)C4CC4)c3)nc12 ?
< 5 µM

Further cases:
CC50 at 3 days lookup needed for CCOc1nc(NCc2ccc(CS(=O)(=O)NC(C)C)cc2)nc2ccc(-c3ccc(F)cc3)nc12 , thanks.
5 to 25 µM

What do you have for COC(=O)Nc1ccc(-c2ccc3nc(NCc4ccc(S(N)(=O)=O)cc4)nc(NCC(F)(F)F)c3n2)cc1 ?
5 to 25 µM

---

- run_description: CC50 assay (CellTiter-Glo) in Huh-7 HCV replicon cells
- Assay type: cell-based, human
- setup_conditions: human, 3 days incubation, CellTiter-Glo readout
assay_metric: CC50 at 3 days

Examples with answers:
CC50 at 3 days lookup needed for CCOc1nc(NCc2ccc(S(N)(=O)=O)cc2)nc2ccc(-c3ccc(F)cc3)nc12 [Example 109] , thanks.
5 to 25 µM

What do you have for NC(=O)c1ccc(-c2ccc3nc(NCc4ccc(S(N)(=O)=O)cc4)nc(C4CC4)c3n2)cc1 [Example 292] ?
5 to 25 µM

What do you have for CCOc1nc(NCc2ccc(F)cc2)nc2ccc(-c3cnc(N)s3)nc12 [Example 100] ?
< 5 µM

Further cases:
CC50 at 3 days lookup needed for CCOc1nc(NCc2cc(F)c(F)c(F)c2)nc2ccc(-c3ccc(F)cc3)nc12 [Example 46] , thanks.
5 to 25 µM

What do you have for NS(=O)(=O)c1ccc(CNc2nc(NCC(F)(F)F)c3nc(-c4ccc(Cl)c(S(=O)(=O)NCCN5CCCC5)c4)ccc3n2)cc1 [Example 195] ?
< 5 µM

What do you have for CCOc1nc(NCc2ccc(S(N)(=O)=O)cc2)nc2ccc(-c3ccc(NC(=O)NC4CC4)cc3)nc12 [Example 131] ?
5 to 25 µM

What do you have for CN(CCS(C)(=O)=O)c1nc(NCc2ccc(F)cc2)nc2ccc(-c3ccc(NC(=O)C4(O)CC4)cc3)nc12 [Example 281] ?
5 to 25 µM

---

Measured CC50 at 3 days, listed per entry.
- run_description: CC50 assay (CellTiter-Glo) in Huh-7 HCV replicon cells
- Type: cell-based, human
- setup_conditions: human, 3 days incubation, CellTiter-Glo readout

Examples with answers:
CC50 at 3 days lookup needed for CN(CCS(C)(=O)=O)c1nc(NCc2ccc(F)cc2)nc2ccc(-c3ccc(C(N)=O)cc3)nc12 [Example 273] , thanks.
5 to 25 µM

What do you have for NS(=O)(=O)c1ccc(CNc2nc(NCC(F)(F)F)c3nc(-c4ccc(N5CCCC5=O)cc4)ccc3n2)cc1 [Example 191] ?
< 5 µM

What do you have for NS(=O)(=O)c1ccc(CNc2nc(NCC(F)(F)F)c3nc(-c4cnc(N5CCCC5)cn4)ccc3n2)cc1 [Example 167] ?
< 5 µM

Further cases:
CC50 at 3 days lookup needed for CC(C)Nc1nc(Nc2ccc(F)cc2)nc2ccc(-c3ccc(F)cc3)nc12 [Example 49] , thanks.
> 25 µM

What do you have for CC(C)N1CCC(NS(=O)(=O)c2cc(-c3ccc4nc(NCc5ccc(S(N)(=O)=O)cc5)nc(NCC(F)(F)F)c4n3)ccc2Cl)CC1 [Example 193] ?
< 5 µM

What do you have for NS(=O)(=O)c1ccc(CNc2nc(NCC(F)(F)F)c3nc(-c4ccc(Cl)c(S(=O)(=O)NC5CCNCC5)c4)ccc3n2)cc1 [Example 200] ?
< 5 µM

What do you have for CCOc1nc(NCc2ccc(F)cc2)nc2ccc(-c3ccc(NC(=O)C4(N)CC4)cc3)nc12 [Example 99] ?
< 5 µM

---

- run_description: CC50 assay (CellTiter-Glo) in Huh-7 HCV replicon cells
- Assay type: cell-based, human
- setup_conditions: human, 3 days incubation, CellTiter-Glo readout
assay_metric: CC50 at 3 days

CC50 at 3 days lookup needed for CCOc1nc(NCc2ccc(S(N)(=O)=O)cc2)nc2ccc(-c3ccc(F)c(S(N)(=O)=O)c3)nc12 , thanks.
5 to 25 µM

What do you have for NS(=O)(=O)c1ccc(CNc2nc(NCC(F)(F)F)c3nc(-c4ccc(NC(=O)C5(O)CC5)cc4)ccc3n2)cc1 ?
> 25 µM

Further cases:
CC50 at 3 days lookup needed for NS(=O)(=O)c1ccc(CNc2nc(NCC(F)(F)F)c3nc(-c4ccc(F)c(S(=O)(=O)N[C@@H]5CCNC5)c4)ccc3n2)cc1 , thanks.
< 5 µM

What do you have for CC(C)(O)CNc1nc(NCc2ccc(F)cc2)nc2ccc(-c3ccc(F)cc3)nc12 ?
< 5 µM

What do you have for CC(C)Nc1nc(NCc2cccnc2)nc2ccc(-c3ccc(F)cc3)nc12 ?
5 to 25 µM

What do you have for CN(C)C(=O)c1ccc(CNc2nc(NCC(F)(F)F)c3nc(-c4ccc(F)cc4)ccc3n2)cc1 ?
> 25 µM

What do you have for CN1CC[C@H](C(=O)Nc2ccc(-c3ccc4nc(NCc5ccc(S(N)(=O)=O)cc5)nc(NCC(F)(F)F)c4n3)cc2F)C1 ?
5 to 25 µM

---

- run_description: CC50 assay (CellTiter-Glo) in Huh-7 HCV replicon cells
- Format: cell-based, human
- setup_conditions: human, 3 days incubation, CellTiter-Glo readout
assay_metric: CC50 at 3 days

CC50 at 3 days lookup needed for N#Cc1cccc(-c2ccc3nc(NCc4ccc(S(N)(=O)=O)cc4)nc(NCC(F)(F)F)c3n2)c1 , thanks.
> 25 µM

What do you have for CCOc1nc(NCc2ccc(F)cc2)nc2ccc(-c3ccc(NC(=O)N4CCCC4)cc3)nc12 ?
5 to 25 µM

What do you have for CN(CCS(C)(=O)=O)c1nc(NCc2ccc(F)cc2)nc2ccc(-c3cccc(N(CCO)S(C)(=O)=O)c3)nc12 ?
5 to 25 µM

Further cases:
CC50 at 3 days lookup needed for NS(=O)(=O)c1ccc(CNc2nc(NCC(F)(F)F)c3nc(-c4ccc(F)c(NS(=O)(=O)C5CC5)c4)ccc3n2)cc1 , thanks.
> 25 µM

What do you have for Fc1ccc(-c2ccc3nc(NCC(F)(F)F)nc(O[C@H]4CCOC4)c3n2)cc1 ?
> 25 µM

What do you have for NS(=O)(=O)c1ccc(CNc2nc(NCC(F)(F)F)c3nc(-c4ccc(F)c(S(=O)(=O)NC5CCNCC5)c4)ccc3n2)cc1 ?
5 to 25 µM

What do you have for NS(=O)(=O)c1ccc(CNc2nc(NC3CC3)c3nc(-c4ccc(C(=O)NC5CC5)cc4)ccc3n2)cc1 ?
5 to 25 µM

What do you have for CCOc1nc(NCc2ccc(F)cc2)nc2ccc(-c3ccc(NC(=O)C4(O)CC4)cc3)nc12 ?
5 to 25 µM

---

- run_description: CC50 assay (CellTiter-Glo) in Huh-7 HCV replicon cells
- Format: cell-based, human
- setup_conditions: human, 3 days incubation, CellTiter-Glo readout
Measured CC50 at 3 days, listed per entry.

CC50 at 3 days lookup needed for CCOc1nc(NCc2ccc(F)cc2)nc2ccc(-c3ccc(NC(=O)N4CCOCC4)cc3)nc12 [Example 72] , thanks.
5 to 25 µM

What do you have for CCNc1nc(NCc2ccc(S(N)(=O)=O)cc2)nc2ccc(-c3ccc(F)cc3)nc12 [Example 297] ?
< 5 µM

What do you have for NS(=O)(=O)c1ccc(CNc2nc(NCC(F)(F)F)c3nc(-c4cn[nH]c4)ccc3n2)cc1 [Example 189] ?
5 to 25 µM

Further cases:
CC50 at 3 days lookup needed for C[C@H](O)C(=O)Nc1ccc(-c2ccc3nc(NCc4ccc(S(N)(=O)=O)cc4)nc(NCC(F)(F)F)c3n2)cc1 [Example 210] , thanks.
> 25 µM

What do you have for CCCc1nc(NCc2ccc(S(N)(=O)=O)cc2)nc2ccc(-c3ccc(F)cc3)nc12 [Example 112] ?
< 5 µM

What do you have for CCOc1nc(NCc2ccc(S(N)(=O)=O)cc2)nc2ccc(-c3ccc(NC(=O)OCCN4CCCC4)cc3)nc12 [Example 125] ?
< 5 µM
